- Assay system: E. coli hinT (Escherichia coli, UniProt P0ACE7)
- Sequence (P0ACE7 whole entry): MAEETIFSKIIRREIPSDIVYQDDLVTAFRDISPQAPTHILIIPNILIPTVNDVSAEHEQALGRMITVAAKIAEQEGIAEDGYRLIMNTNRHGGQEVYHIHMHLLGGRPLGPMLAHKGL
- Test protocol: Phosphoramidase fluorescence assay
- Type: biochemical
- Condition set: Table 5
Assay endpoint: Kcat
Write your answer as a measured quantity: the number, then the unit.

*Q* Note Kcat for the molecule shown: Nc1ncnc2c1ncn2[C@@H]1O[C@H](COP(=O)(O)NCCc2c[nH]c3ccccc23)[C@@H](O)[C@@H]1O [Ara-AMP-Tryptamine]
*A* 0.95 ± 0.17 s⁻¹

*Q* Given the molecule O=c1[nH]cnc2c1ncn2[C@@H]1O[C@H](COP(=O)(O)NCCc2c[nH]c3ccccc23)[C@@H](O)[C@H]1O [IMP-Tryptamine] , write its reported Kcat.
*A* 3.89 ± 0.18 s⁻¹

*Q* State its Kcat for this molecule: Nc1nc2c(ncn2[C@@H]2O[C@H](COP(=O)(O)NCCc3c[nH]c4ccccc34)[C@@H](O)[C@H]2O)c(=O)[nH]1 [GMP-Tryptamine]
*A* 3.45 ± 0.3 s⁻¹

*Q* Return Kcat (reported value) for this molecule: COC(=O)[C@@H](Cc1c[nH]c2ccccc12)NP(=O)(O)OC[C@H]1O[C@@H](n2cnc3c(=O)[nH]c(N)nc32)[C@H](O)[C@@H]1O [GMP-D-TrpCOOMe]
*A* 1.75 ± 0.05 s⁻¹

*Q* Look up and report measured Kcat for this entry: Nc1ncnc2c1ncn2[C@@H]1O[C@H](COP(=O)(O)NCCc2c[nH]c3ccccc23)[C@@H](O)[C@H]1O [AMP-Tryptamine]
*A* 4.07 ± 0.11 s⁻¹

*Q* Quote Kcat reported for Cc1cn([C@H]2C[C@H](O)[C@@H](COP(=O)(O)NCCc3c[nH]c4ccccc34)O2)c(=O)[nH]c1=O [TMP-Tryptamine] please.
*A* 0.014 ± 0.001 s⁻¹

*Q* Tell us which Kcat value is on record for O=c1ccn([C@@H]2O[C@H](COP(=O)(O)NCCc3c[nH]c4ccccc34)[C@@H](O)[C@H]2O)c(=O)[nH]1 [UMP-Tryptamine]
*A* 1.63 ± 0.22 s⁻¹

* * *

- Assay system: UniProt:P0ACE7
- Test protocol: Phosphoramidase fluorescence assay
- Format: biochemical
- Condition set: Table 5
- Procedure: The fluorescence of tryptophan (ex, 280 nm, em 360 nm) can be quenched when covalently attached to a nucleoside monophosphate, and nucleoside phosphoramidates of D- and L-tryptophan and tryptamine are excellent fluorescent substrates for hHINT1. […] Initial rates were determined 10 during the first 10-20% of the reaction for variable substrate concentrations. The Michaelis-Menten constants, kcat and Km, for selected nucleoside phosphosphoramidates have been determined. […]
Task for the reader: assign each of the following compounds its reported Km.
Form entry: value (µM) — number only.

*Q* Return Km (reported value) for this compound: Nc1nc2c(ncn2[C@@H]2O[C@H](COP(=O)(O)NCCc3c[nH]c4ccccc34)[C@@H](O)[C@H]2O)c(=O)[nH]1
*A* 5.34

*Q* Please report the measured Km for COC(=O)[C@@H](Cc1c[nH]c2ccccc12)NP(=O)(O)OC[C@H]1O[C@@H](n2cnc3c(=O)[nH]c(N)nc32)[C@H](O)[C@@H]1O
*A* 21.3

*Q* Item Nc1ncnc2c1ncn2[C@@H]1O[C@H](COP(=O)(O)NCCc2c[nH]c3ccccc23)[C@@H](O)[C@H]1O : provide Km
*A* 5.03

*Q* // Input: O=c1[nH]cnc2c1ncn2[C@@H]1O[C@H](COP(=O)(O)NCCc2c[nH]c3ccccc23)[C@@H](O)[C@H]1O . Output its Km only.
*A* 13.7

*Q* Identify the reported Km for the following entry. O=c1ccn([C@@H]2O[C@H](COP(=O)(O)NCCc3c[nH]c4ccccc34)[C@@H](O)[C@H]2O)c(=O)[nH]1
*A* 25.1

*Q* Retrieve Km measured for Cc1cn([C@H]2C[C@H](O)[C@@H](COP(=O)(O)NCCc3c[nH]c4ccccc34)O2)c(=O)[nH]c1=O and print it.
*A* 35.9

*Q* Report measured Km; entry is Nc1ncnc2c1ncn2[C@@H]1O[C@H](COP(=O)(O)NCCc2c[nH]c3ccccc23)[C@@H](O)[C@@H]1O
*A* 34.6

* * *

- Assay system: hHINT1 (Homo sapiens)
- Test protocol: Phosphoramidase fluorescence assay
- Type: biochemical
- Condition set: Table 5
Assay endpoint: Km (µM)
Number only, in µM; omit the unit.

*Q* // fetch Km given entry O=c1[nH]cnc2c1ncn2[C@@H]1O[C@H](COP(=O)(O)NCCc2c[nH]c3ccccc23)[C@@H](O)[C@H]1O
*A* 0.71

*Q* Read off the recorded Km for O=c1ccn([C@@H]2O[C@H](COP(=O)(O)NCCc3c[nH]c4ccccc34)[C@@H](O)[C@H]2O)c(=O)[nH]1
*A* 1.42

*Q* Consider the molecule Nc1nc2c(ncn2[C@@H]2O[C@H](COP(=O)(O)NCCc3c[nH]c4ccccc34)[C@@H](O)[C@H]2O)c(=O)[nH]1 and give its recorded Km.
*A* 0.243

*Q* Give the measured Km for COC(=O)[C@@H](Cc1c[nH]c2ccccc12)NP(=O)(O)OC[C@H]1O[C@@H](n2cnc3c(=O)[nH]c(N)nc32)[C@H](O)[C@@H]1O
*A* 3.27

*Q* Consider the molecule Nc1ncnc2c1ncn2[C@@H]1O[C@H](COP(=O)(O)NCCc2c[nH]c3ccccc23)[C@@H](O)[C@@H]1O and give its recorded Km.
*A* 0.79

*Q* Consider the molecule Nc1ncnc2c1ncn2[C@@H]1O[C@H](COP(=O)(O)NCCc2c[nH]c3ccccc23)[C@@H](O)[C@H]1O . State its measured Km.
*A* 0.25

*Q* Tell us which Km value is on record for Cc1cn([C@H]2C[C@H](O)[C@@H](COP(=O)(O)NCCc3c[nH]c4ccccc34)O2)c(=O)[nH]c1=O
*A* 26.1

* * *

- Assay system: hHINT1 (Homo sapiens, UniProt P49773)
- Sequence (P49773 whole entry): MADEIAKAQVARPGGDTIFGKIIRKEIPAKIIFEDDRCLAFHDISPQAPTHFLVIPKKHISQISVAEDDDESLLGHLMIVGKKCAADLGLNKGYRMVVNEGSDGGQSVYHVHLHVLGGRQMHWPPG
- Test protocol: Phosphoramidase fluorescence assay
- Format: biochemical
- Condition set: Table 5
- Method: The fluorescence of tryptophan (ex, 280 nm, em 360 nm) can be quenched when covalently attached to a nucleoside monophosphate, and nucleoside phosphoramidates of D- and L-tryptophan and tryptamine are excellent fluorescent substrates for hHINT1. […] Initial rates were determined 10 during the first 10-20% of the reaction for variable substrate concentrations. The Michaelis-Menten constants, kcat and Km, for selected nucleoside phosphosphoramidates have been determined. […]
Assay endpoint: Kcat
Your answer should be a number followed by the unit of measure.

*Q* Please report Kcat with hHINT1 (Homo sapiens, UniProt P49773) for item Nc1ncnc2c1ncn2[C@@H]1O[C@H](COP(=O)(O)NCCc2c[nH]c3ccccc23)[C@@H](O)[C@@H]1O .
*A* 0.85 ± 0.1 s⁻¹

*Q* Return reported Kcat for target or system hHINT1 (Homo sapiens, UniProt P49773), item Nc1ncnc2c1ncn2[C@@H]1O[C@H](COP(=O)(O)NCCc2c[nH]c3ccccc23)[C@@H](O)[C@H]1O .
*A* 2.05 ± 0.27 s⁻¹

*Q* Please tell me the measured Kcat for Cc1cn([C@H]2C[C@H](O)[C@@H](COP(=O)(O)NCCc3c[nH]c4ccccc34)O2)c(=O)[nH]c1=O ; system: hHINT1 (Homo sapiens, UniProt P49773).
*A* 0.044 ± 0.01 s⁻¹

*Q* Specify the recorded Kcat for O=c1ccn([C@@H]2O[C@H](COP(=O)(O)NCCc3c[nH]c4ccccc34)[C@@H](O)[C@H]2O)c(=O)[nH]1 , system: hHINT1 (Homo sapiens, UniProt P49773).
*A* 1.85 ± 0.29 s⁻¹

*Q* Please indicate recorded Kcat of Nc1nc2c(ncn2[C@@H]2O[C@H](COP(=O)(O)NCCc3c[nH]c4ccccc34)[C@@H](O)[C@H]2O)c(=O)[nH]1 measured with hHINT1 (Homo sapiens, UniProt P49773).
*A* 2.09 ± 0.16 s⁻¹

*Q* Lab note: record Kcat of O=c1[nH]cnc2c1ncn2[C@@H]1O[C@H](COP(=O)(O)NCCc2c[nH]c3ccccc23)[C@@H](O)[C@H]1O tested on hHINT1 (Homo sapiens, UniProt P49773).
*A* 2.53 ± 0.09 s⁻¹

*Q* Write down the reported Kcat (system: hHINT1 (Homo sapiens, UniProt P49773)) of COC(=O)[C@@H](Cc1c[nH]c2ccccc12)NP(=O)(O)OC[C@H]1O[C@@H](n2cnc3c(=O)[nH]c(N)nc32)[C@H](O)[C@@H]1O
*A* 0.29 ± 0.02 s⁻¹
